tested on: AD38 cells; experiment: Viability of AD38 cells (Promega CellTiter-Glo) at the end of compound treatment; format: cell-based; details: 10 μM compound, 6 days, luminescence normalized against DMSO control wells (controls being 100%)
AD38 Viability Normalized Result (CPAM/DMSO %) at 10 μM values by entry
Could you give me the number in %? Just the number is fine.

Note to self: AD38 Viability Normalized Result (CPAM/DMSO %) at 10 μM recorded for `CCN1c2ccc(C(=O)NCCc3cncs3)cc2NC(=O)c2ccccc21` was 91

Note to self: AD38 Viability Normalized Result (CPAM/DMSO %) at 10 μM recorded for `O=C(Nc1cccc(-c2cccc(O)c2)c1)c1ccc2c(c1)NC(=O)c1cc(F)ccc1S2` was 97

Note to self: AD38 Viability Normalized Result (CPAM/DMSO %) at 10 μM recorded for `O=C(NCCc1cccnc1)c1ccc2c(c1)NC(=O)c1ccccc1N2Cc1ccccc1` was 107

Note to self: AD38 Viability Normalized Result (CPAM/DMSO %) at 10 μM recorded for `O=C(O)c1cccc(-c2cccc(NC(=O)c3ccc4c(c3)NC(=O)c3cc(F)ccc3S4)c2)c1` was 95

Note to self: AD38 Viability Normalized Result (CPAM/DMSO %) at 10 μM recorded for `O=C(NCCc1cccs1)c1ccc2c(c1)NC(=O)c1ccccc1S2` was 70

###

tested on: HBV viral production in AD38 cells; test: Viral load production in AD38 cells by quantitative PCR of the HBV core sequence in supernatant; type: cell-based; settings: Hepatitis B virus, 144 h; 10 μM compound, 6 days at 37° C., viral load in supernatant compared against DMSO control wells; read-out: AD38 Viral Load (CpAM/DMSO %) at 10 μM
measurement_kind: activity at 10 µM (%)
Could you give me the number in %? Just the number is fine.

Worked cases, answers included:
# smiles_input, measurement_target, value_measured
measured = [
    ("O=C(Nc1nc2ccccc2s1)c1ccc2c(c1)NC(=O)c1cc(F)ccc1S2", "HBV viral production in AD38 cells", 113),
    ("O=C(NCCc1cnco1)c1ccc2c(c1)NC(=O)c1ccccc1S2", "HBV viral production in AD38 cells", 6),
    ("O=C(Nc1ccc(F)cc1Cl)c1ccc2c(c1)NC(=O)c1cc(F)ccc1S2", "HBV viral production in AD38 cells", 96),
    ("O=C(NCCc1cccnc1)c1ccc2c(c1)NC(=O)c1ccccc1S2(=O)=O", "HBV viral production in AD38 cells", 3),
    ("O=C(NCCc1cncnc1)c1ccc2c(c1)NC(=O)c1ccccc1S2(=O)=O", "HBV viral production in AD38 cells", 28),
]

Note to self: activity at 10 µM recorded for `O=C(NCCc1cncnc1)c1ccc2c(c1)NC(=O)c1ccccc1S2` was 33

Note to self: activity at 10 µM recorded for `O=C(NCCc1cccnc1)c1ccc2c(c1)NC(=O)c1cccc(F)c1S2` was 2

###

system: AD38 cells; experiment: Viability of AD38 cells (Promega CellTiter-Glo) at the end of compound treatment; format: cell-based; conditions: 10 μM compound, 6 days, luminescence normalized against DMSO control wells (controls being 100%)
measurement_kind: AD38 Viability Normalized Result (CPAM/DMSO %) at 10 μM
Could you give me the number in %? Just the number is fine.

Worked cases, answers included:
# smiles_input, measurement_target, value_measured
measured = [
    ("O=C1Nc2c(cc(F)c(C(=O)NCc3cccnc3)c2F)Sc2ccccc21", "AD38 cells", 89),
    ("Cc1ccc(CNC(=O)c2ccc3c(c2)NC(=O)c2ccccc2S3)cc1", "AD38 cells", 103),
]

Note to self: AD38 Viability Normalized Result (CPAM/DMSO %) at 10 μM recorded for `CN1c2ccc(C(=O)NCc3cncnc3)cc2NC(=O)c2ccccc21` was 81
